Reference for the values: patent EP4215522A1

target: RNA-dependent RNA polymerase (SARS-CoV-2) (Severe acute respiratory syndrome coronavirus 2, UniProt P0DTD1); experiment: in vitro enzymatic assay of RdRp activity (AlphaScreen detection); assay type: biochemical; details: compound at 100 µM; read-out: % inhib. (100 µM)
Some molecules, each annotated with its measured inhibition at 100 µM.
Write down the numeric answer in % and omit the unit.

Molecule | U | Reported Result
O=c1cc(C(CCCC(F)(F)F)c2ccc(O)c(O)c2)oc2cccc(O)c12 (stereo not shown) [(13d)] | % | 10

Recorded inhibition at 100 µM (molecule CC(c1ccc(O)c(O)c1)c1cc(=O)c2c(O)cccc2o1 (stereo not shown) [(13b)] ): 100

Notebook: O=c1c(OCCCO)c(-c2ccc(O)c(O)c2)oc2cc(O)cc(O)c12 [(9c)] , inhibition at 100 µM read as 95

The molecule listed as CCCc1c(-c2ccc(O)c(O)c2)oc2cc(O)cc(O)c2c1=O [(5b)] shows inhibition at 100 µM equal to 98

Value of inhibition at 100 µM reported for the molecule O=c1cc(/C=C/c2ccc(O)c(O)c2)oc2cccc(O)c12 [(18)] is 94

Record summary for O=C(OCCc1ccc(O)c(O)c1)c1cc(=O)c2c(O)cccc2o1 [(24c)] : reported inhibition at 100 µM = 72

Memo: O=C(NCCNC(=S)Nc1ccc(O)c(O)c1)c1cc(=O)c2c(O)cccc2o1 [(31)] , reported inhibition at 100 µM: 94

The molecule listed as O=C(Oc1ccc(O)c(O)c1)c1cc(=O)c2c(O)cccc2o1 [(24b)] shows inhibition at 100 µM equal to 94

Input O=C(NCCNC(=O)c1cc(=O)c2c(O)cccc2o1)c1ccc(O)c(O)c1 [(28)] . Output inhibition at 100 µM: 100
